assay-name: recombinant barcode read abundance after kanamycin selection (control-corrected) (log10(CPM+1)); higher = more efficient recombination; sequences stand for … in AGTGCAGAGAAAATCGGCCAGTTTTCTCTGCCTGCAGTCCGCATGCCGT…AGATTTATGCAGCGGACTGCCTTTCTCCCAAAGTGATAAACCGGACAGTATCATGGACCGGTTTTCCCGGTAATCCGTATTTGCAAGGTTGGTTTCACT; site = the 11-nt target;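 also: IS621 recombinase and bridge RNA in Escherichia coli cells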
Could you label it criterion met if measured recombinant barcode read abundance (log10) is 0.2 or higher, and criterion not met otherwise?

sequence-entry	label
CTAAGTCCTTGGGTTCTAACCTGTTGCAT (site CTAATTCCTAT)	criterion not met
AGGTGCCCTTGGGTTCTAACCTGTTGCCG (site AGGTGCCCTCG)	criterion met
GTCGATCCTTGGGTTCTAACCTGTTGCCT (site GCCGATCCTAG)	criterion met
GTTCGTCCTTGGGTTCTAACCTGTTGCCA (site CCAATGTCTAC)	criterion not met
CTTCGAGCTTGGGTTCTAACCTGTTGCGG (site CTTCGAGCTCT)	criterion met
GATGTACCTTGGGTTCTAACCTGTTGCCT (site GATGTACCTAG)	criterion met
ACCCAACCTTGGGTTCTAACCTGTTGCCT (site ACCCAAACTAG)	criterion met
GAGTGGCCTTGGGTTCTAACCTGTTGCGG (site GAGTCGCCTCC)	criterion not met
TATTATCCTTGGGTTCTAACCTGTTGCCT (site TATTATCCTAG)	criterion not met
AGTTGCCCTTGGGTTCTAACCTGTTGCCT (site AGTTGCCCTAG)	criterion met
AGGCACTCTTGGGTTCTAACCTGTTGCTG (site AGGCACTCTCA)	criterion met
AAGGACGCTTGGGTTCTAACCTGTTGCCT (site AAGGGCGCTAG)	criterion met
TTGAGGCCTTGGGTTCTAACCTGTTGCCT (site GTGAGGCCTAG)	criterion not met
CTCAATTCTTGGGTTCTAACCTGTTGCAT (site CTCGATTCTAT)	criterion met
TTCTGGGCTTGGGTTCTAACCTGTTGCCT (site TTCTGAGCTAG)	criterion not met
CAACCGGCTTGGGTTCTAACCTGTTGCCT (site CAACCGTCTAG)	criterion not met
TCACGTCCTTGGGTTCTAACCTGTTGCAT (site TCACGTCCTAT)	criterion met
CAAGGGCCTTGGGTTCTAACCTGTTGCCT (site CAAGGGCCTAG)	criterion met
TGACATGCTTGGGTTCTAACCTGTTGCCT (site TGACATGCTAG)	criterion met
ACAATACCTTGGGTTCTAACCTGTTGCCG (site ACAATAGCTAG)	criterion met
ATTTGTACTTGGGTTCTAACCTGTTGCCT (site ATTTGGACTAG)	criterion not met
CCTCGCACTTGGGTTCTAACCTGTTGCCT (site CTTCGCACTAG)	criterion not met
ATGCAAACTTGGGTTCTAACCTGTTGCCT (site ATGCAAGCTAG)	criterion met
GTAAGTTCTTGGGTTCTAACCTGTTGCCT (site GGAAGTTCTAG)	criterion not met
ACTCTGGCTTGGGTTCTAACCTGTTGCCT (site ACACTGGCTAG)	criterion not met
AGTGCGGCTTGGGTTCTAACCTGTTGCCT (site AGTGCGGCTAG)	criterion met
TAAGTCACTTGGGTTCTAACCTGTTGCCT (site TAAGTCACTAG)	criterion met
CTATTCGCTTGGGTTCTAACCTGTTGCCT (site CTATTCCCTAG)	criterion not met
TGACGTCCTTGGGTTCTAACCTGTTGCAT (site TGACGTCCTAA)	criterion not met
GGCTGGGCTTGGGTTCTAACCTGTTGCCG (site GGTTGGGCTCT)	criterion not met
CGGCTATCTTGGGTTCTAACCTGTTGCCT (site TGGCTATCTAG)	criterion not met
ACCAATGCTTGGGTTCTAACCTGTTGCCT (site ACCAATTCTAG)	criterion not met
GTCTTAACTTGGGTTCTAACCTGTTGCCG (site GTCTTGACTTG)	criterion not met
TATCGGGCTTGGGTTCTAACCTGTTGCAG (site TATCGGGCTCT)	criterion met
CGGTCTACTTGGGTTCTAACCTGTTGCCT (site CCGTCTACTAG)	criterion met
ATGAAGCCTTGGGTTCTAACCTGTTGCCT (site GTGAAGCCTAG)	criterion not met
TACCCTACTTGGGTTCTAACCTGTTGCCT (site CACCCTACTAG)	criterion not met
ATGGGCCCTTGGGTTCTAACCTGTTGCTA (site ATGGGCCCTCA)	criterion met
GGTCTAACTTGGGTTCTAACCTGTTGCCT (site GGTCTAACTAG)	criterion met
TCCTAGGCTTGGGTTCTAACCTGTTGCGC (site TCCTAGGCTGC)	criterion met
GCGTCGGCTTGGGTTCTAACCTGTTGCCT (site GCGTCGGCTAG)	criterion not met

Each recorded value in this set is attributed to the supplement of paper PMC11208160.
